assay-target: LC3B K30R (human, UniProt Q9GZQ8 1-120, K30R)
protocol-summary: ITC; peptide at 0.4 mM titrated into 0.020 mM LC3B or GABARAP protein in 26 steps, 25 C, VP-ITC, one-site model; 50 mM Na2HPO4, 100 mM NaCl, pH 7.0
conditions: both partners purified
attribute-measured: Kd (µM)
Just the number in µM, nothing appended.

# lookup: Kd of GAMGPQQEDEWVNVQYPD (cloning artefact left after TEV cleavage; PLEKHM1, LIR region, residues 629-642; Used non-labelled in ITC and in the LC3C co-crystal, 15N-labelled in the NMR titrations with non-labelled proteins; The Appendix (D1:p2) calls the ITC peptide 'synthetic', the methods describe the recombinant preparation; also called PLEKHM1-LIR WT; PLEKHM1 629-642; source: E. coli NEB T7, expressed as …) [PLEKHM1-LIR peptide (GAMG-P629QQEDEWVNVQYPD642)]
5.26
